Target system: Alpha-bungarotoxin (Bungarus multicinctus)
Method: alpha-bungarotoxin binders on microarray, profiling panel, artefact control for SMM control protein annotation, biochemical, small-molecule microarray, Alexa647 label, 635/667 nm fluorescence (AID 1117)
Stated conditions: alpha-BTX-A647 binding fluorescence, higher = more signal
Recorded metric: composite z-score
// return a plain number; no unit text

Find the measured composite z-score: item C=C(/C(=C/C[C@H](OC(C)=O)c1ccc(OCCO)cc1)c1cnc2ccccc2c1)C(C)C , target or system Alpha-bungarotoxin (Bungarus multicinctus).
0.911

Same question for COC(=O)CC=C[C@@H](C)[C@@H](C=NO[C@H](C)c1cn([C@@H]2COC[C@H]2O)nn1)OC please.
1.01

What do you get for O=C1[C@H]2[C@H]3[C@H](O)[C@H](O)CC(=NO[C@@H]4O[C@H](CO)[C@@H](O)[C@H](O)[C@H]4O)[C@@H]3CC[C@H]2C(=O)N1c1ccc(F)cc1F ?
0.161

How about COCCCNC(=O)[C@@]1(Sc2ccc(C)cc2)CC(=O)N(Cc2ccccc2)[C@@H]1c1ccc(CO)cc1I ?
1.23

Also C=CCOC(=O)[C@H]1[C@@H]2C(=O)O[C@@H](c3ccccc3)[C@@H](c3ccccc3)N2[C@@H](c2ccc(OCCOC(=O)[C@H]3C[C@H]4C(=O)N5CCC[C@H]5C(=O)N4[C@H]3c3cccc(OCCO)c3)cc2)[C@]12C(=O)Nc1ccc(I)cc12 , if possible.
1.69

Next up: CC(CCN1CCc2nc(-c3ccccc3)c(-c3ccccc3)cc2C1)=NO[C@H](C)c1cn([C@@H]2COC[C@H]2O)nn1
0.872

* * *

Method: Plasmodium falciparum growth inhibition, primary screen, strain 3D7, DAPI fluorescence, 100 nL (AID 1184);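 further: parasites grown inside human red blood cells in medium with human serum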
Stated conditions: P. falciparum 3D7 growth, 3 d, higher = more signal
Recorded metric: z-score
Provide a numeric answer; units are not to be included.

I am curious: what z-score value has been reported for CN(C)c1ccc(C(O)C2C=CC3C(=O)N(c4ccccc4)C(=O)C3N2Nc2ccccc2F)cc1 (centres undefined) ?
-0.0341

Same question for O=C1NC(=O)C2C1C=CC(C(O)Cc1ccccc1)N2Nc1ccccn1 (centres undefined) please.
0.396

Repeat with COc1ccc([Si](C)(C)[C@@H]2[C@@H](CC(=O)N3CCC[C@H]3CO)O[C@]3(C(=O)N(Cc4cccc(N5CCC5=O)c4)c4ccccc43)[C@H]2C)cc1
-0.744

# iterate: CCN1C(=O)[C@H]2[C@H]3[C@H](O)[C@H](O)CC(=NOCc4ccccc4)[C@@H]3CC[C@H]2C1=O
-0.165

* * *

Method: basal HepG2 mitochondrial membrane potential changes, profiling panel, cell-based, JC-1 fluorescence, 24 h, 100 nL compound (AID 1167); further: test concentration not given here
Stated conditions: higher = more signal
Give measured z-score for each item. Keep answers brief.

Consider the compound CC(=O)OC[C@H]1O[C@H](CC=NOC[C@@H](C)[C@H](OCc2ccccc2)C(C)C)C=C[C@@H]1OC(C)=O and give its measured z-score.
-0.713

Next record, please: CCOC(=O)[C@H](Cc1ccccc1)NC(=O)CCC1CC(OC(=O)NCc2ccc3c(c2)OCO3)CC2(CCCC(COC(=O)NCc3ccccc3)O2)O1 (stereo partly drawn)
2.27

Moving on to CC(C)=NOCc1ccc(-c2cc(-c3ccccc3)no2)cc1
-0.49

Now this one: CC(C)[C@H](NC(=O)OC(C)(C)C)[C@@H](O)CC(=O)OC(C)(C)C
0.251

# repeat for COC(=O)CC=C[C@@H](C)[C@@H](C=NO[C@@H](C)c1cc(-c2c(C)cc(C)cc2C)no1)OC
-1.13

Another compound: CO[C@@H]1COC(=O)CC=C[C@@H](C)[C@H](OC)COC(=O)[C@H](COCc2ccccc2)NC(=O)CC=C[C@H]1C
0.0535

// query: O=C(NN=C1C[C@@H](O)[C@@H](O)[C@@H]2[C@@H]3C(=O)N(c4cccc(Oc5ccccc5)c4)C(=O)[C@@H]3CC[C@@H]12)OCc1ccccc1
-0.659

Here is the next compound: COC(=O)[C@H](C)NC(=O)CCC1CC(OC(=O)NCc2cccc3ccccc23)CC2(CCCC(COC(=O)NCCc3ccc(Cl)cc3)O2)O1 (stereo partly drawn)
0.159

* * *

Method: small-molecule microarray binders of probe aCHRDL2, primary screen, biochemical, biotinylated probe, 635/667 nm fluorescence (AID 1100)
Stated conditions: higher = more signal
Recorded metric: composite z-score
Output spec: single numeric token, no unit.

Can you share its composite z-score? I mean this compound: C#CCCCON=C1C[C@@H](O)[C@@H](O)[C@@H]2[C@@H]3C(=O)N(CCC(=O)OCC)C(=O)[C@@H]3CC[C@@H]12
1.51

Next up: CCc1cccc(NC(=O)O[C@H]2[C@H](OC(=O)Nc3ccc4c(c3)OCO4)[C@@H](OC(=O)Nc3ccc4c(c3)OCO4)[C@@H](OC)O[C@@H]2CO)c1
-0.0627

CCN1C(=O)[C@H]2[C@H]3[C@H](O)[C@H](O)CC(=NO[C@@H]4O[C@H](CO)[C@@H](O)[C@H](O)[C@H]4O)[C@@H]3CC[C@H]2C1=O ?
-0.233

Repeat for the following compound: COC(=O)[C@]1(CO)N=C(c2ccc(OCCCO)cc2)O[C@@H]1c1ccccc1N=[N+]=[N-]
0.194

Same thing, different compound: CCOC(=O)CCN1C(=O)[C@H]2[C@H]3[C@H](O)[C@H](O)CC(=NNC(=O)OCc4ccc(OC)cc4)[C@@H]3CC[C@H]2C1=O
-0.476

What about this compound? CC(C)C[C@@H]1NC(=O)[C@H]2C[C@@H](C(=O)NCCCCCCN(C)C)[C@@H](c3cccc(OCCO)c3)N2C1=O
0.124

Also CC(C)=CCCC(C)=CCON=C1C[C@@H](O)[C@@H](O)[C@@H]2[C@@H]3C(=O)N(C[C@@H]4CCCO4)C(=O)[C@@H]3CC[C@@H]12 ?
-0.753

* * *

Method: small-molecule binders of probe aNOTCH2, primary screen, biochemical, small-molecule microarray, 635/667 nm fluorescence (AID 1121);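 further: score merges feature fluorescence read at 667 nm with its signal to noise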
Stated conditions: higher = more signal
Give composite z-score for every item shown.

Requested field: composite z-score. Item: O=C1CCCC2OC12C(O)CCc1ccccc1 (stereo unspecified)
-0.185

How about this molecule: COC(=O)CC=C[C@H](C)[C@@H](OCc1ccccc1Br)C(C)C
-0.113

What do we get for CN1C(=O)C2C(C1=O)C1C=C(CCCO)C2C(c2ccc(CN3CCCC3)cc2)N1C (stereo unspecified) ?
-0.0907

Next molecule up: C[C@@H]1CC[C@H]2C(=O)O[C@H](COc3ccc(C(C)(C)C)cc3)CN2[C@H]1c1ccc(Br)cc1
0.0776

Please answer likewise for COC(=O)[C@@H]1CC[C@H](C)[C@@H](c2ccc(C)cc2)N1C(=O)c1ccc(C=NOC(C)CN2CCCCc3nc(C)c(C)cc32)cc1 (stereo partly specified)
-0.0707

Moving on to the next molecule: C#CCCCON=C1C[C@@H](O)[C@@H](O)[C@@H]2[C@@H]3C(=O)N([C@@H](C)c4ccccc4)C(=O)[C@@H]3CC[C@H]12
-0.0554

Input CCOC(=O)[C@H](Cc1ccccc1)NC(=O)CCC1CC(OC(=O)NCCc2ccc(F)cc2)CC2(CCCC(COC(=O)NCC(c3ccccc3)c3ccccc3)O2)O1 (stereo partly specified)
-0.037

Let us now turn to O=C1[C@H]2[C@H]3[C@H](O)[C@H](O)CC(=NO[C@@H]4O[C@H](CO)[C@@H](O)[C@H](O)[C@H]4O)[C@H]3CC[C@H]2C(=O)N1C1CCCCC1
-0.112

Same again, this time with CO[C@H]1O[C@H](CO)[C@@H](OC(=O)Nc2ccc(C#N)cc2)[C@H](OC(=O)c2cc3ccccc3[nH]2)[C@H]1OC(=O)c1cc2ccccc2[nH]1
-0.0211

And then O=C1O[C@@H](c2ccccc2)[C@@H](c2ccccc2)N2[C@@H](c3ccccc3OCCO)[C@]3(C(=O)Nc4ccc(C#CCCO)cc43)[C@@H](C(=O)O)[C@H]12 , what is it?
0.473

And CCOC(=O)C1=CC[C@H]2C(=O)N(CC)C(=O)[C@@H]12 ?
-0.0866

Query CCOC(=O)[C@H](Cc1ccccc1)NC(=O)CCC1CC(OC(=O)NCc2ccc3c(c2)OCO3)CC2(CCCC(COC(=O)NCC3CCCCC3)O2)O1 (stereo partly specified) next
-0.0891

Now give it for C[C@H](c1ccccc1)N1C(=O)[C@H]2[C@@H]3C(=CC[C@H]2C1=O)C(=O)[C@H]1O[C@H]1[C@H]3O too.
-0.147

Likewise for CCOc1ccc(N2C(=O)/C(=C/C=C/c3ccccc3OC)S(=O)(=O)C2c2cccc([N+](=O)[O-])c2)cc1 (stereo unspecified) ?
-0.0793

// query: O=C1C[C@@H](O)[C@@H](O)[C@@H]2[C@@H]3C(=O)N(Cc4ccc5c(c4)OCO5)C(=O)[C@@H]3CC[C@@H]12
-0.0938

Entry CC1CC/C=C\[C@H]2OC34C=CCN(C(C)C)C(=O)[C@H]3N(CCCO)C(=O)[C@@H]4C2C(=O)O1 (stereo partly specified) please
-0.0621

Repeat with NCCCCCNC(=O)[C@@H]1C[C@@H]2C(=O)N3CCC[C@H]3C(=O)N2[C@@H]1c1cccc(OCCO)c1
0.294

Could you do the same for COC(=O)c1c(CC[C@@H](CO)NC(=O)N[C@H](Cc2ccccc2)Cn2cc(-c3ccccc3N)nn2)oc(C(C)=O)c1C(=O)OC , please?
0.115

Another molecule: CCOC(=O)[C@H](Cc1ccccc1)NC(=O)CCC1CC(OC(=O)NCc2ccc3c(c2)OCO3)CC2(CCCC(COC(=O)NCc3cccc(C(F)(F)F)c3)O2)O1 (stereo partly specified)
-0.123

Follow-up item: CC(C)=C1C(=O)C(c2ccccc2)=C2CN3C(=O)N(CCc4ccccc4)C(=O)[C@]3(Cc3ccc(F)cc3)[C@H]21
0.148

Moving on to Cc1cc2c(nc1C)CCCN2CC(O)CN1CCN(C)CC1 (stereo unspecified)
-0.149

And what about the molecule CO[C@@H]1COC(=O)[C@@H]2CCCN2C(=O)[C@@H](C)COC(=O)[C@H](COCc2ccccc2)NC(=O)CC=C[C@H]1C ?
-0.147

Note, next up: C=CC[C@@H]1C=C[C@H](ON=Cc2ccc(C(=O)N3[C@H](c4ccc(C)cc4)[C@@H](C)CC[C@H]3C(=O)OC)cc2)[C@@H](CO)O1
-0.132

Same again, this time with CC1CC/C=C\[C@H]2OC34C=CCN(Cn5nnc6ccccc65)C(=O)[C@H]3N(CCO)C(=O)[C@@H]4C2C(=O)O1 (stereo partly specified)
-0.15

And the next one, CO[C@H]1COC(=O)[C@H](C)NC(=O)[C@@H](C)COC(=O)CC=C[C@@H]1C ?
-0.192

What about CCCCC(=C=CC[C@H](O)c1ccccc1OCCO)C[C@H](O)COCc1ccccc1 ?
-0.147

// query: COc1cccc([C@H]2Oc3ccc(OC)cc3C(=NOC(C)CN3CCCc4nc(C)c(C)cc43)[C@@H]2O)c1 (stereo partly specified)
-0.0527

Now the same for CCc1cc2c(nc1CC)CCN(CCC(C)=NOC[C@@H](O)COCc1ccco1)C2
0.31

Again, but for Cc1cc2c(nc1C)CCCN2CC(C)ON=C1[C@H]2CCn3c(=O)n(-c4ccccc4)c(=O)n3[C@H]2[C@H](O)[C@@H]2O[C@H]12 (stereo partly specified)
-0.0535

Then CCOC(=O)CCN1C(=O)[C@H]2[C@H]3[C@H](O)[C@H](O)CC(=O)[C@H]3CC[C@H]2C1=O ?
-0.0986

Next entry: CC(=O)OC[C@H]1O[C@H](CCON=C(C)CCN2CCc3nc(-c4ccccc4)c(-c4ccccc4)cc3C2)C=C[C@@H]1OC(C)=O
-0.0877
